Cited source for all entries: patent US9890147B2

compounds and their reported IC50
# Assayed target: BRD4 (BD1) (Homo sapiens, UniProt O60885)
# Construct: with relatively long constructs also being possible, preferably amino acids 44-168; made in house; host or cells: E. coli
# Experiment: Binding assay BRD4/acetylated peptide H4 (TR-FRET protein-protein interaction assay)
Readout: IC50

                                   compound                            assayed_target  readout  reported
0  CNC(=O)N1N=C(c2ccc(N3CCS(=O)(=O)CC3)cc2)c2cc(Cl)c(OC(F)(F)F)cc2CC1C (racemic)  BRD4 (BD1) (Homo sapiens, UniProt O60885)     IC50    250 nM
1  CNC(=O)N1N=C(c2ccc(Cl)cc2)c2cc(OC(F)(F)F)ccc2CC1C (racemic)  BRD4 (BD1) (Homo sapiens, UniProt O60885)     IC50    190 nM
2  CNC(=O)N1N=C(c2ccc(-c3c(C)noc3C)cc2)c2cc(C(C)(C)C)ccc2CC1C (racemic)  BRD4 (BD1) (Homo sapiens, UniProt O60885)     IC50     40 nM
3  CNC(=O)N1N=C(c2ccc(Cl)cc2)c2cc(C3CC3)ccc2CC1C (racemic)  BRD4 (BD1) (Homo sapiens, UniProt O60885)     IC50    120 nM
4  CNC(=O)N1N=C(c2ccc(N3CC(C)OCC3=O)cc2)c2cc(OC)c(OC)cc2CC1C (racemic)  BRD4 (BD1) (Homo sapiens, UniProt O60885)     IC50    260 nM
5  CNC(=O)N1N=C(c2ccc(-c3c(C)noc3C)cc2)c2cc(OC)c(OC)cc2CC1C (racemic)  BRD4 (BD1) (Homo sapiens, UniProt O60885)     IC50     80 nM
6  CNC(=O)N1N=C(c2ccc(-c3ccc(F)cc3)cc2)c2cc(OC)c(OC)cc2CC1C (racemic)  BRD4 (BD1) (Homo sapiens, UniProt O60885)     IC50     60 nM

###

# Assayed target: BRD4 (BD1) (Homo sapiens)
# Construct: with relatively long constructs also being possible, preferably amino acids 44-168
# Experiment: Binding assay BRD4/acetylated peptide H4 (TR-FRET protein-protein interaction assay)
// returns Not met unless IC50 is strictly below 100 nM, in which case Met

>>> df
                                    compound  assigned_class
 0  CCC1Cc2cc(OC)c(OC)cc2C(c2ccc(N3CCCC3=O)cc2)=NN1C(=O)NC (racemic)         Not met
 1  CNC(=O)N1N=C(c2ccc(-c3ccccc3OC(F)(F)F)cc2)c2cc(OC)c(OC)cc2CC1C (racemic)         Not met
 2  CNC(=O)N1N=C(c2ccc(N3CCN(C)CC3)cc2)c2cc(OC(F)(F)F)ccc2CC1C (racemic)             Met
 3  CNC(=O)N1N=C(c2ccc(-c3cccc(C(=O)NC4CC4)c3)cc2)c2cc(OC)c(OC)cc2CC1C (racemic)             Met
 4  CNC(=O)N1N=C(c2ccc(-c3c(C)nn(C)c3C)cc2)c2cc(OC)ccc2C[C@@H]1C             Met
 5  CNC(=O)N1N=C(c2ccc(-n3nc(COC)cc3C)cc2)c2cc(OC)ccc2C[C@@H]1C             Met
 6  CNC(=O)N1N=C(c2ccc(-n3nc(-c4ccccc4)cc3C(F)(F)F)cc2)c2cc(OC)c(OC)cc2CC1C (racemic)         Not met
 7  CNC(=O)N1N=C(c2ccc(N3CCCN(C)CC3=O)cc2)c2cc(OC)c(OC)cc2CC1C (racemic)         Not met
 8  CNC(=O)N1N=C(c2ccc(N3CCNCC3)cc2)c2cc(OC)c(OC)cc2CC1C (racemic)             Met
 9  CNC(=O)N1N=C(c2ccc(N3CCS(=O)(=O)CC3)cc2)c2cc(N3CCS(=O)(=O)CC3)c(OC(F)(F)F)cc2CC1C (racemic)         Not met
10  CNC(=O)N1N=C(c2ccc(N3CCC(N(C)C)CC3)cc2)c2cc(OC)c(OC)cc2C[C@H]1C         Not met
11  CCOc1cc2c(cc1OCC)C(c1ccc(-c3c(C)noc3C)cc1)=NN(C(=O)NC)C(C)C2 (racemic)         Not met
12  CCC1Cc2cc(OC)c(OC)cc2C(c2ccc(N3CCS(=O)(=O)CC3)cc2)=NN1C(=O)NC (racemic)         Not met
13  CNC(=O)N1N=C(c2ccc(-n3ccc(-c4ccc(F)cc4)n3)cc2)c2cc(OC)c(OC)cc2CC1C (racemic)             Met
14  CNC(=O)N1N=C(c2ccc(N3CCC(C)(NC(=O)OC(C)(C)C)CC3)cc2)c2cc(OC)c(OC)cc2CC1C (racemic)             Met
15  CCC1Cc2cc(OC)c(OC)cc2C(c2ccc(-c3cn(C)nn3)cc2)=NN1C(=O)NC (racemic)         Not met
16  CNC(=O)N1N=C(c2ccc(-c3ccnn3C)cc2)c2cc(OC)ccc2C[C@@H]1C             Met
17  CNC(=O)N1N=C(c2ccc(-c3ccccc3F)cc2)c2cc(OC)c(OC)cc2CC1C (racemic)         Not met
18  CNC(=O)N1N=C(c2ccc(-c3ccc(S(C)(=O)=O)cc3)cc2)c2cc(OC)c(OC)cc2CC1C (racemic)             Met
19  CNC(=O)N1N=C(c2ccc(N3CCC(C)(O)CC3)cc2)c2cc(OC)c(OC)cc2C[C@@H]1C             Met
20  CNC(=O)N1N=C(c2ccc(N3CCCCC3=O)cc2)c2cc(OC)c(OC)cc2CC1C (racemic)         Not met
21  CNC(=O)N1N=C(c2ccc(N3CCCC3=O)cc2)c2cc(OC)c(OC)cc2CC1C (racemic)             Met
22  CNC(=O)N1N=C(c2ccc(-c3ccccc3C(=O)O)cc2)c2cc(OC)c(OC)cc2CC1C (racemic)         Not met
23  CNC(=O)N1N=C(c2ccc(N3CCN(CC(F)F)CC3)cc2)c2cc(OC)c(OC)cc2CC1C (racemic)             Met
24  CNC(=O)N1N=C(c2ccc(-c3ccc([S+](C)[O-])cc3)cc2)c2cc(OC)c(OC)cc2CC1C (racemic)             Met
25  CNC(=O)N1N=C(c2ccc(-c3c(C)noc3C)cc2)c2cc(OC(F)(F)F)c(Cl)cc2C[C@H]1C         Not met
26  CNC(=O)N1N=C(c2ccc(N3CCN(C)CC3)cc2)c2cc(OC)c(OC(F)F)cc2CC1C (racemic)             Met
27  CNC(=O)N1N=C(c2ccc(Cl)cc2)c2cc(OCc3cccc(C)n3)ccc2CC1C (racemic)         Not met
